# run-description: Cytotoxicity against human MT4 cells measured after 3 days by CytoTox-Glo assay
# Type: cell-based
measured-property: CC50 at 72 h (µM)
Kindly answer with a numeric value in µM, unit omitted.

// recorded CC50 at 72 h for `CCCCCC/C=C/CCCCCCCC(=O)O[C@H]1C(C)=C[C@]23C(=O)[C@@H](C=C(CO)[C@@H](O)[C@@]12O)[C@H]1[C@@H](C[C@H]3C)C1(C)C` : 13.9

// recorded CC50 at 72 h for `CCCCCCCCCCCCCCCC(=O)O[C@H]1C(C)=C[C@]23C(=O)[C@@H](C=C(CO)[C@@H](O)[C@]12O)[C@H]1[C@@H](C[C@H]3C)C1(C)C` : 26.3
